Measured values drawn from paper PMC7933434 for this set.

Listed next: entries and their corresponding pKi.
target: EcGUS (Escherichia coli GUS) (Escherichia coli, UniProt P05804); experiment: biochemical; conditions: 50 mM HEPES pH 7.5, 37 °C
Sequence (P05804 whole entry): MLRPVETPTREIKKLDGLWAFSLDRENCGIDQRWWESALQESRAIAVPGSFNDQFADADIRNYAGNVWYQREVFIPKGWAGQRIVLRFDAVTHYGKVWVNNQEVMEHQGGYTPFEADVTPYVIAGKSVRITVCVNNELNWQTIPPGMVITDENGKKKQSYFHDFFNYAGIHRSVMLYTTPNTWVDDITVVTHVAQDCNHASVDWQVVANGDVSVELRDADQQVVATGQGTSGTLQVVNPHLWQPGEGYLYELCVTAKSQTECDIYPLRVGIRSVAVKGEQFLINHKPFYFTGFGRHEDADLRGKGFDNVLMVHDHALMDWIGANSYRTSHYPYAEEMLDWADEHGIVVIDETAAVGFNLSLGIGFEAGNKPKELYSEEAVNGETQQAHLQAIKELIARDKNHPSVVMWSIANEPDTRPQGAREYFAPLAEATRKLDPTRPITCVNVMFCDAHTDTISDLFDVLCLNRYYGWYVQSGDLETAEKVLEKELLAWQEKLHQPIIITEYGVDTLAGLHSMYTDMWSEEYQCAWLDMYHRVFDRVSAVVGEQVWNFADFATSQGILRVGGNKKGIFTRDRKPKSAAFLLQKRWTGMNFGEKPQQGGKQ
pKi: −log10 of the molar value.
measurement label: pKi

[
  {
    "smiles string": "CCCCCCCCC[C@@H]1NC[C@@H](O)[C@H](O)[C@H]1C(=O)O",
    "measurement label": "pKi",
    "test result": 8.35
  },
  {
    "smiles string": "CCC[C@@H]1NC[C@@H](O)[C@H](O)[C@H]1C(=O)O",
    "measurement label": "pKi",
    "test result": 7.46
  },
  {
    "smiles string": "CCCCCC[C@@H]1NC[C@@H](O)[C@H](O)[C@H]1C(=O)O",
    "measurement label": "pKi",
    "test result": 8.52
  },
  {
    "smiles string": "O=C(O)[C@H]1CNC[C@@H](O)[C@@H]1O",
    "measurement label": "pKi",
    "test result": 7.80
  }
]

----------
molecular target: BdGUS (Bifidobacterium dentium GUS) (Bifidobacterium dentium); experiment: biochemical; details: BdGUS; 50 mM HEPES pH 7.5, 37 °C
Sequence (D2Q7B1 1-668): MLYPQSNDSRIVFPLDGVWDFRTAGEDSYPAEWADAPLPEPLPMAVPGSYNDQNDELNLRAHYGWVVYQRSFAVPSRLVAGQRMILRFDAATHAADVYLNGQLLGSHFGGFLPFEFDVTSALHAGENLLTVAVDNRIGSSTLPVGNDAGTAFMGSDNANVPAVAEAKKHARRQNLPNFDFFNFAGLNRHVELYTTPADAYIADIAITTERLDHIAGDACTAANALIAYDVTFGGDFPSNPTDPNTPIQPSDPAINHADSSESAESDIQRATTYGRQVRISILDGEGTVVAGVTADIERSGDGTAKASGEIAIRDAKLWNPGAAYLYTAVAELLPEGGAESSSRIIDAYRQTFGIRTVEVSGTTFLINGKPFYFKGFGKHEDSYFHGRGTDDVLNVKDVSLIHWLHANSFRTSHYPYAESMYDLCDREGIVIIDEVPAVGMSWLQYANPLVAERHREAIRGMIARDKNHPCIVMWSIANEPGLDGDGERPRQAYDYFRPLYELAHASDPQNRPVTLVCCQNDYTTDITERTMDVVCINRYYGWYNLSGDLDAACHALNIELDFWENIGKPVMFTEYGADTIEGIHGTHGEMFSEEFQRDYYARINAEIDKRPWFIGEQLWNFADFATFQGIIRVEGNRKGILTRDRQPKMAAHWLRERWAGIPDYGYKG
measurement label: Ki (nM)

[
  {
    "smiles string": "CCC[C@@H]1NC[C@@H](O)[C@H](O)[C@H]1C(=O)O",
    "subject of test": "BdGUS (Bifidobacterium dentium GUS) (Bifidobacterium dentium)",
    "measurement label": "Ki",
    "test result": 4900
  },
  {
    "smiles string": "CCCCCC[C@@H]1NC[C@@H](O)[C@H](O)[C@H]1C(=O)O",
    "subject of test": "BdGUS (Bifidobacterium dentium GUS) (Bifidobacterium dentium)",
    "measurement label": "Ki",
    "test result": 860
  }
]

----------
target: LgGUS (Lactobacillus gasseri GUS) (Lactobacillus gasseri, UniProt Q9AHJ8); assay: GUS inhibition assay, hydrolysis of 4-methylumbelliferyl-β-glucuronide, LgGUS; assay type: biochemical; conditions: LgGUS
Sequence (Q9AHJ8 1-598): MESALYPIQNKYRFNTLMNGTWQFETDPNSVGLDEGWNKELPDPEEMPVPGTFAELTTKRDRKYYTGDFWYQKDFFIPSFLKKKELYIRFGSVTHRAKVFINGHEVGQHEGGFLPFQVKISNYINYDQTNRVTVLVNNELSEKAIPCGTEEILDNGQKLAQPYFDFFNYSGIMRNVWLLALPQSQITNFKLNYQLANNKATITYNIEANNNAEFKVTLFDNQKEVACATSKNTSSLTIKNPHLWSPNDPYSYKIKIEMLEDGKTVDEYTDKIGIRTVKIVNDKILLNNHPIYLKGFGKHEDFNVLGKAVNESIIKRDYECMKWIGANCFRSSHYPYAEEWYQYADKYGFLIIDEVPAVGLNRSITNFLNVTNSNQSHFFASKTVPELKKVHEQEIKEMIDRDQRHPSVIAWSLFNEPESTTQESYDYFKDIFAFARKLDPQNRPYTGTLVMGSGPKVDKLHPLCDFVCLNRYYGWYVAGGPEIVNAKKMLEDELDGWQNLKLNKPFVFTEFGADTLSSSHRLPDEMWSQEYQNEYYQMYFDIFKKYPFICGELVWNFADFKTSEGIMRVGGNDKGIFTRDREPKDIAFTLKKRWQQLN
pKi: −log10 of the molar value.

[
  {
    "compound": "CCCCCCCCC[C@@H]1NC[C@@H](O)[C@H](O)[C@H]1C(=O)O [Inhibitor 4, C6-nonyl UIFG]",
    "pKi": 6.57
  }
]

----------
target: HsGUS (human GUS) (Homo sapiens, UniProt P08236); construct: HsGUS was prepared as described[37]; made in house; test: GUS inhibition assay, hydrolysis of 4-methylumbelliferyl-β-glucuronide, HsGUS; type: biochemical; conditions: HsGUS
Sequence (P08236 23-651): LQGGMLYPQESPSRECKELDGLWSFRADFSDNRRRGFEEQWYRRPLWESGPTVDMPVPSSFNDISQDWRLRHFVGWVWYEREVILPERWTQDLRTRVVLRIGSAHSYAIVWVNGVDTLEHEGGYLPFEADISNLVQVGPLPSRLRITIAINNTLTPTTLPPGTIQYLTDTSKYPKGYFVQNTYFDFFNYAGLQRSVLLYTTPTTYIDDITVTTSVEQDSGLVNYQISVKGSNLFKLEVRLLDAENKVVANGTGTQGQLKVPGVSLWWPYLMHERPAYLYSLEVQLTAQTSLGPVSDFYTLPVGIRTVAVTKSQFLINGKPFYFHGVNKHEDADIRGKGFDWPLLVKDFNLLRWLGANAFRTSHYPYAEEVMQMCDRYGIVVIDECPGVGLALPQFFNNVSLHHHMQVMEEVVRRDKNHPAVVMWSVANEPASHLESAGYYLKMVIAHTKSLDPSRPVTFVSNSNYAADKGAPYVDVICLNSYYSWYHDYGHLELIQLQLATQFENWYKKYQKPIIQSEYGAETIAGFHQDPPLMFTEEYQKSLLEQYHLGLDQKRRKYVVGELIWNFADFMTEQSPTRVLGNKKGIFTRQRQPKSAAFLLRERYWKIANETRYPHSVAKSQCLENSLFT
measurement label: Ki

[
  {
    "smiles string": "O=C(O)[C@H]1CNC[C@@H](O)[C@@H]1O",
    "subject of test": "HsGUS (human GUS) (Homo sapiens, UniProt P08236)",
    "measurement label": "Ki",
    "test result": "180 nM"
  }
]
